# Tgt: Estrogen receptor beta (Homo sapiens)
# Sequence (Q92731 whole entry): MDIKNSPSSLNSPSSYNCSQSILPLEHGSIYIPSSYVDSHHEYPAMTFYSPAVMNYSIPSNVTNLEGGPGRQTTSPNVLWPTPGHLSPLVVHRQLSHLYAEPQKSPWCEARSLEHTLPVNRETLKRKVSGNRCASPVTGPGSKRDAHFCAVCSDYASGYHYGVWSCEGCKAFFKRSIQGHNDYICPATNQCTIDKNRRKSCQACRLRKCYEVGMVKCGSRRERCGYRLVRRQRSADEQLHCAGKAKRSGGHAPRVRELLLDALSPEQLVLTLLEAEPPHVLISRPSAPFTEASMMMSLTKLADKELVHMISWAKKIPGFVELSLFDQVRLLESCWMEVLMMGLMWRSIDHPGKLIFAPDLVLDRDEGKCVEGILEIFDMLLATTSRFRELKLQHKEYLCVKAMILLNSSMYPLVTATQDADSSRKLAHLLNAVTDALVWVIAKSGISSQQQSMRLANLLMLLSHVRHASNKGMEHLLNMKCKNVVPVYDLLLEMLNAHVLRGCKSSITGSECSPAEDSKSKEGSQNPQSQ
# Assay notes: Agonist activity at ERbeta (unknown origin) expressed in human HepG2 cells assessed as transcriptional activation after 24 hrs by ERE-luciferase reporter gene assay
Property label: EC50 (nM)
Number in nM, nothing else.

## Input Tell me measured EC50 for Oc1ccc(/C(=N\c2ccccc2)c2ccc(O)cc2O)cc1 please.
## Output 628

## Input Return reported EC50. Input molecule: Cc1ccccc1/N=C(\c1ccc(O)cc1)c1ccc(O)cc1O
## Output 2

## Input # return recorded EC50 for entry COc1ccc(/N=C(\c2ccc(O)cc2)c2ccc(O)cc2O)cc1
## Output 276

## Input Fill in reported EC50 for this entry: Oc1ccc(N=C(c2ccc(O)cc2)c2ccc(O)cc2)cc1
## Output 332

## Input Quick one: give measured EC50 for Oc1ccc(/C(=N\c2ccc(Br)cc2)c2ccc(O)cc2O)cc1
## Output 12500

## Input Report EC50, nothing else, for this molecule: Cc1ccc(/N=C(\c2ccc(O)cc2)c2ccc(O)cc2O)cc1
## Output 10900

## Input Give the measured EC50 for Oc1ccc(/C(=N\c2ccc(Cl)cc2)c2ccc(O)cc2O)cc1
## Output 385
